# Subject of test: hα4 and β1 integrins (Homo sapiens, UniProt P05556+P13612)
# Construct: expressed in transfected cells; host or cells: CHO cells
# Sequence (P13612 34-1032): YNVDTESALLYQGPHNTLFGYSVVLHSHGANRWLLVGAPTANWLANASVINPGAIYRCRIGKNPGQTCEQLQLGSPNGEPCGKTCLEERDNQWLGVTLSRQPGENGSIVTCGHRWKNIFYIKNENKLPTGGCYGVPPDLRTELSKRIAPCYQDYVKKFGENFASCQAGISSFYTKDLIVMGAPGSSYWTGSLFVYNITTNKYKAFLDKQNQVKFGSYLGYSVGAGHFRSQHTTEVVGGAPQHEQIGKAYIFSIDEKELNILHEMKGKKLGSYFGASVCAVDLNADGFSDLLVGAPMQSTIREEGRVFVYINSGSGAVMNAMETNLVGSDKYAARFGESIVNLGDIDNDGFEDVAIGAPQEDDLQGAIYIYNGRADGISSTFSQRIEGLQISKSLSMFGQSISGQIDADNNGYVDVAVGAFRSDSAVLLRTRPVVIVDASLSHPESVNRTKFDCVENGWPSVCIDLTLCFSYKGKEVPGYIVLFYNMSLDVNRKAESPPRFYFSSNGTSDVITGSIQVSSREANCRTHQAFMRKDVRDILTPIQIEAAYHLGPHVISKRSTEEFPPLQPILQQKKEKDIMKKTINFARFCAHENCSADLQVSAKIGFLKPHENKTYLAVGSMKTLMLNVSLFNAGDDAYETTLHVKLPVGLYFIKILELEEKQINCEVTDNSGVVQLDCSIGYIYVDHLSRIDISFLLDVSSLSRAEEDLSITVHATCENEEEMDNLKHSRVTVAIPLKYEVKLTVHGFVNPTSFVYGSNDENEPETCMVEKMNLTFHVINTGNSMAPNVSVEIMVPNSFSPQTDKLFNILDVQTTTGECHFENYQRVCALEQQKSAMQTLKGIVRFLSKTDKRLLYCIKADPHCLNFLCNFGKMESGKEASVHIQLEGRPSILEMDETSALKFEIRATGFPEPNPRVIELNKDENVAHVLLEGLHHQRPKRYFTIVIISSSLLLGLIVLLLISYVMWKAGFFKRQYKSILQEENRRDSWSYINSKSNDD
# Sequence (P05556 21-798): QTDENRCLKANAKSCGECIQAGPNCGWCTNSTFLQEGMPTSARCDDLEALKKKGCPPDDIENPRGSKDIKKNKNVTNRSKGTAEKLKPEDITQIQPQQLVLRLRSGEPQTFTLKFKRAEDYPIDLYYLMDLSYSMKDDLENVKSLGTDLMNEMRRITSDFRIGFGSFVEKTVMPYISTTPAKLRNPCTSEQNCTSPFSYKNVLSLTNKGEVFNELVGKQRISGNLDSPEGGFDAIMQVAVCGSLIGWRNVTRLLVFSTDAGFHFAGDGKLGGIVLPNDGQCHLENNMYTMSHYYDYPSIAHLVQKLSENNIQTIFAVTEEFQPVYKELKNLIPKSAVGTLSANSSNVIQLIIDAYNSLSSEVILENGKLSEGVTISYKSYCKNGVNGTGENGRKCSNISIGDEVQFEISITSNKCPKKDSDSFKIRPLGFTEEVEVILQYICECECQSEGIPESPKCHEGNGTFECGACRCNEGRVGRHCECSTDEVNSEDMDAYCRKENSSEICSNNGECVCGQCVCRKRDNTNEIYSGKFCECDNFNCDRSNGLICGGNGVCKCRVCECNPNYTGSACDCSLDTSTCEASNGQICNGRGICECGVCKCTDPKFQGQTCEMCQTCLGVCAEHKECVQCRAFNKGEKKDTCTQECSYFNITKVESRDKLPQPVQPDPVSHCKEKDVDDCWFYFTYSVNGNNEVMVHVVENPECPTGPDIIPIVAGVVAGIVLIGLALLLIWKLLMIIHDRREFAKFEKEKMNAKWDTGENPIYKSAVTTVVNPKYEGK
# Experiment summary: In vitro inhibition of binding between CHO cells expressing hα4 and β1 integrins and Eu3+-hVCAM-1 D1D7-IgG
# Condition notes: CHO cells expressing hα4 and β1 integrins; Eu3+-hVCAM-1 D1D7-IgG ligand; without HSA
Readout name: pKi
Reminder that pKi means the negative base-10 logarithm of the concentration expressed in mol/L.

For the compound CO[C@@H]1CCCN([C@H]2C[C@@H](CO[C@H]3CC[C@H](C(=O)O)CC3)N(C(=O)Cc3cc(Cl)c(NC(=O)c4csc5ccccc45)cc3F)C2)C1 , give its reported pKi. 8.92

For the compound CCO[C@H]1CN([C@H]2C[C@@H](CO[C@H]3CC[C@H](C(=O)O)CC3)N(C(=O)Cc3cc(Cl)c(NC(=O)c4cn(C)c5ccccc45)cc3Cl)C2)C[C@H]1OCC , give its reported pKi. 8.33

For the compound O=C(Nc1cc(Cl)c(CC(=O)N2C[C@@H](N3CCCC3)C[C@H]2CO[C@H]2CC[C@H](C(=O)O)CC2)cc1Cl)c1csc2ccccc12 , give its reported pKi. 8.92

Further cases:
For the compound Cn1cc(C(=O)Nc2cc(F)c(CC(=O)N3C[C@@H](N4CCN(CCF)CC4)C[C@H]3CO[C@H]3CC[C@H](C(=O)O)CC3)cc2Cl)c2ccccc21 , give its reported pKi. 8.41

For the compound O=C(Nc1cc(Cl)c(CC(=O)N2C[C@@H](N3CCN(C4CC4)CC3)C[C@H]2CO[C@H]2CC[C@H](C(=O)O)CC2)cc1Cl)c1csc2ccccc12 , give its reported pKi. 9.04

For the compound Cn1cc(C(=O)Nc2cc(F)c(CC(=O)N3C[C@@H](N4CCN(CC(F)F)CC4)C[C@H]3CO[C@H]3CC[C@H](C(=O)O)CC3)cc2Cl)c2ccccc21 , give its reported pKi. 8.49

For the compound CO[C@@H]1CCN([C@H]2C[C@@H](CO[C@H]3CC[C@H](C(=O)O)CC3)N(C(=O)Cc3cc(Cl)c(NC(=O)c4csc5ccccc45)cc3F)C2)C1 , give its reported pKi. 9.13

For the compound CO[C@H]1CN([C@H]2C[C@@H](CO[C@H]3CC[C@H](C(=O)O)CC3)N(C(=O)Cc3cc(Cl)c(NC(=O)c4csc5ccccc45)cc3F)C2)C[C@@H]1OC , give its reported pKi. 8.92

For the compound Cn1cc(C(=O)Nc2cc(F)c(CC(=O)N3C[C@@H](N4CCCO4)C[C@H]3CO[C@H]3CC[C@H](C(=O)O)CC3)cc2Cl)c2ccccc21 , give its reported pKi. 8.21

For the compound C[C@@H]1CN([C@H]2C[C@@H](CO[C@H]3CC[C@H](C(=O)O)CC3)N(C(=O)Cc3cc(Cl)c(NC(=O)c4c[nH]c5ccccc45)cc3F)C2)C[C@H](C)O1 , give its reported pKi. 8.92

For the compound CC(C)(C)N1CCN([C@H]2C[C@@H](CO[C@H]3CC[C@H](C(=O)O)CC3)N(C(=O)Cc3cc(Cl)c(NC(=O)c4coc5ccccc45)cc3Cl)C2)CC1 , give its reported pKi. 8.52

For the compound C[C@@H]1CN([C@H]2C[C@@H](CO[C@H]3CC[C@H](C(=O)O)CC3)N(C(=O)Cc3cc(Cl)c(NC(=O)c4c[nH]c5ccccc45)cc3Cl)C2)C[C@H](C)O1 , give its reported pKi. 9.02

For the compound C[C@@H]1CN([C@H]2C[C@@H](CO[C@H]3CC[C@H](C(=O)O)CC3)N(C(=O)Cc3ccc(NC(=O)c4coc5ccccc45)c(Cl)c3)C2)C[C@H](C)O1 , give its reported pKi. 9.02
